Please go through the items and note down their Organ distribution of F-18 signal, kidney.
- protocol_text: Biodistribution: organ distribution of F-18 signal in mice
- Type: in vivo, male NMRI mice
- stated_conditions: kidney, 30 min post i.v. injection
Reply with just the number (in % ID/g).

[ask] Look up Organ distribution of F-18 signal, kidney for this compound: O=C(NCC(=O)N1CCN(c2ccc(OCc3ccccc3)cc2)CC1)c1cccnc1[18F] [Example 12c]
[reply] 7.88

[ask] Look up Organ distribution of F-18 signal, kidney for this compound: O=C(NCC(=O)N1CCN(c2ccc(OCc3ccccc3)cc2)CC1)c1ccnc([18F])c1 [Example 11c]
[reply] 7.83

[ask] Look up Organ distribution of F-18 signal, kidney for this compound: O=C(NCC(=O)N1CCN(c2ccc(OCc3ccccc3)cn2)CC1)c1ccnc([18F])c1 [Example 14f]
[reply] 7.84
